Every entry's value here was drawn from the supplement of paper PMC9732359.

Assay: protein stability index of a GFP-peptide fusion (yeast GPS) (PSI 1-4); higher = more stable; sorted into four equal gates, so the index is relative within each strain
Settings: doa10∆
Assign Satisfied whenever protein stability index does not fall below 3; assign Not satisfied whenever it does.

Example entries and their recorded answers appear below.
LKPEIEKLTSKSLDEQL [LRP1]
Satisfied
EVEEDDEDDDQPMISPD [SWI3]
Satisfied
NSLAVRGKDCTVVISQK [SCL1]
Not satisfied

Input line: Dear colleague, could you confirm whether TPKLQTQLSYLISSSLS [YCS4] has protein stability index at or above 3?
Output line: Not satisfied

###

Test: protein stability index of a GFP-peptide fusion (yeast GPS) (PSI 1-4); higher = more stable; sorted into four equal gates, so the index is relative within each strain
Details: ubr1∆
Collected protein stability index values appear next to each entry.
Write no unit; give the number alone.

PFVPVLDRRFEIFFKKD [FAS1]
2.86
FSFGKSDAAKEPPGSNT [YOR098C/NUP1]
2.68
IWMRGHGTYFLDNMTYS [RRP4]
2.19
EAELSSTKVENSAIIQN [YIL149C/MLP2]
3.13
LNIDFGSDKQMFTQIYL [YML103C/NUP188]
3.25

Input line: Returns the measured protein stability index for the input sequence. Input: GNPGRIRVLFKENGQLI [SEC65]
Output line: 2.44

Input line: Tell me the measured protein stability index of QFVDMVLPNTALKTSIQ [FAS1] , please.
Output line: 1.28
